TGI listing for selected compounds.
System: OVCAR-8 ovarian
experiment: NCI tumour cell line growth inhibition, 48 h

Cc1ncc(C(=O)Nc2ccc(CN3CCN(C)CC3)c(C(F)(F)F)c2)cc1C#Cc1ccc(N)nc1 | 5.03 µM

Which TGI is reported for this compound? CC(C)(O)/C=C/C(=O)[C@](C)(O)[C@H]1[C@H](O)C[C@@]2(C)[C@@H]3CC=C4[C@@H](C[C@H](O)C(=O)C4(C)C)[C@]3(C)C(=O)C[C@]12C
19.9 µM

Which TGI is reported for this compound? COC(=O)NNC(c1ccc(Cl)cc1)c1ccc(Cl)cc1
42.4 µM

Which TGI is reported for this compound? CCC(C)Oc1nc2c(c(=O)n(C)c(=O)n2C)n1C (centres undefined)
> 100 µM

Which TGI is reported for this compound? Cc1ccc(S(=O)(=O)NC(=O)NC(CCCCN=C(N)N)C(=O)O)cc1 (centres undefined)
> 100 µM

Which TGI is reported for this compound? Cc1cccc2c1c1ccc3c(c1n2C)C(=O)C=CC3=O
32.1 µM

Which TGI is reported for this compound? N=C(N)SCCC(=O)CCSC(=N)N
> 100 µM

Which TGI is reported for this compound? CCN1CCN(Cc2ccc(NC(=O)Nc3nc4ccc(Oc5ccnc(C(=O)NC)c5)cc4s3)cc2C(F)(F)F)CC1
4.49 µM

Which TGI is reported for this compound? O=c1cc(-c2ccc(O)cc2)oc2cc(O[C@@H]3O[C@H](CO)[C@@H](O)[C@H](O)[C@H]3O)cc(O)c12
> 100 µM

* * *

Tested on: MCF7 breast
experiment: NCI tumour cell line growth inhibition, 48 h; in the data active = GI50 below about 0.43 µM; inactive = the rest
Pick one: true = active, false = inactive

Here's what some known entries look like.
CC[C@@]1(OC(=O)CN)C(=O)OCc2c1cc1n(c2=O)Cc2c-1nc1cc3c(cc1c2CCl)OCO3 | true
CCCCCN(CCCCC)CC(O)c1cc(Cl)ccc1OC (stereo not drawn) | false
CC1CN(S(=O)(=O)c2oc(-c3ccc(Cl)cc3)nc2C#N)CC(C)O1 (stereo not drawn) | false
O=C(/C=C/c1ccc(C(F)(F)F)cc1)Nc1ccc(C=C2c3ccccc3C(=O)c3ccccc32)cc1 | false
CCn1c(-c2cc3c([nH]c4ccccc43)c(-c3cccc(O)c3)n2)n[nH]c1=S | false
O=c1c2cc(-c3ccccc3)sc2ncn1Cc1ccc(Cl)c(Cl)c1 | false
Oc1c(Cl)cc(Cl)c2ccc(Cn3cc(-c4cc(C(F)(F)F)cc(C(F)(F)F)c4)nn3)nc12 | false
CCCCCCCCOC(=O)c1c(C)[nH]c(/C=C2\N=C(c3ccc[nH]3)C=C2OC)c1C | true

Called result for Cc1ccc2nc(-c3ccc(OCC(=O)N=Nc4c(O)[nH]c5ccccc45)cc3)[nH]c2c1
false

Called result for C=C1C(=O)O[C@H]2[C@H]1CC/C(COC(=O)NCc1ccc(OC)cc1)=C\CC[C@@]1(C)O[C@@H]21
false

Called result for NS(=O)(=O)c1ccc(N2N=C3c4ccccc4CC3C2c2cccs2)cc1 (stereo not drawn)
false

Called result for CN1CCN(CCOc2ccc(-c3cnc4c(-c5cccc(F)c5)cnn4c3)cc2)CC1
false

Called result for NCCCCC1NC(=O)C(CC(=O)O)NC(=O)CNC(=O)C(CCCN=C(N)N)NC(=O)C(N)CSSCC(C(=O)O)NC(=O)C(CC(=O)O)NC(=O)C2CCCN2C(=O)CNC1=O (stereo not drawn)
false
